Listing of entries alongside the reported Inhibition.
- Test system: Escherichia coli
- ASSAY SUMMARY: Antibacterial activity against Escherichia coli ATCC 25922 (CO-ADD:GN_001); MIC in CAMBH media using NBS plates, by Resazurin F(560/590)
- Format: functional
- PARTICULARS: Concentration 20 uM, ASSAY_TEST Inhibition of Bacterial Growth, detection method Resazurin, Fluorescence (ex560/em590), MEDIA CAMHB, plate type 384well, CORNING #3640, time 18 hr

The following compounds have reported results that may help.
NS(=O)(=O)c1ccc(Cl)cc1[N+](=O)[O-]; 8.03%
COc1cc(C(=O)C(=O)c2ccc(O)c(OC)c2)ccc1O; 16.47%

Turning to the following compound.
Which Inhibition value belongs to CSc1nc(C)cc(S)n1 ?
3.46%

###

Listing of entries alongside the reported Inhibition.
- System: Klebsiella pneumoniae
- PARTICULARS: Concentration 20 uM; ASSAY_TEST Inhibition of Bacterial Growth; detection method Absorption (OD600); MEDIA CAMHB; plate type 384well; NBS; CORNING #3640; time 18 hr
- Description: Antibacterial activity against Klebsiella pneumoniae MDR ATCC 70063 (CO-ADD:GN_003); MIC in CAMBH media using NBS plates, by OD(600)
Potency and affinity values are given separately.
Mention the unit after the number when you answer.

CN(C)C(=S)/N=c1\ssc(=S)n1Cc1ccco1; 0.81%
CC1=CN2C(c3cccc([N+](=O)[O-])c3)=NON(c3ccc(C)cn3)C2C=C1 (centres undefined); 7.72%
O=C(/C=C\c1ccc(O)c(O)c1)OC1C(O)CC(OC(=O)/C=C/c2ccc(O)c(O)c2)(C(=O)O)CC1O (centres undefined); 14%

Which Inhibition value belongs to CC(C)(NC(=O)c1cc(Cl)c2ccccc2c1O)C(=O)O ?
19.28%

###

- Test system: Acinetobacter baumannii
- ASSAY SUMMARY: Antibacterial activity against Acinetobacter baumannii ATCC 19606 (CO-ADD:GN_034); MIC in CAMBH media using NBS plates, by Resazurin F(560/590)
- Assay type: functional
- PARTICULARS: Concentration 20 uM, ASSAY_TEST Inhibition of Bacterial Growth, detection method Resazurin, Fluorescence (ex560/em590), MEDIA CAMHB, plate type 384well, CORNING #3640, time 18 hr
Listing of entries alongside the reported Inhibition.
Write it as a number; the unit % goes unstated.

The following compounds have reported results that may help.
Cc1ccc(NC(=O)Nc2c(Cl)cccc2Cl)cn1; -2.44
C[C@@]1(c2ccccc2)O[C@@H]2C[C@H]3[C@@H]4CCC5=CC(=O)C=C[C@]5(C)[C@@]4(F)[C@@H](O)C[C@]3(C)[C@]2(C(=O)CO)O1 [AMCINAFIDE]; -8.64
CC(C)c1ncc(CO)n1Cc1c(Cl)cccc1Cl; 3.11

Which Inhibition value belongs to Nc1ccc(-c2nc3nc(N)nc(N)c3nc2-c2ccc(N)cc2)cc1 ?
-8.41

Which Inhibition value belongs to CCOC(=O)c1cnc(SCC)nc1O ?
-12.25

Which Inhibition value belongs to N#Cc1ncc(Cl)c2ccccc12 ?
-4.37

###

- System: Acinetobacter baumannii
- ASSAY SUMMARY: Antibacterial activity against Acinetobacter baumannii ATCC 19606 (CO-ADD:GN_034); MIC in CAMBH media using NBS plates, by Resazurin F(560/590)
- Type: functional
- PARTICULARS: Concentration 20 uM, ASSAY_TEST Inhibition of Bacterial Growth, detection method Resazurin, Fluorescence (ex560/em590), MEDIA CAMHB, plate type 384well, CORNING #3640, time 18 hr
Listing of entries alongside the reported Inhibition.
Mention the unit after the number when you answer.

The following compounds have reported results that may help.
CN1N=C/C(=C/NC(N)=O)C1=O; -2.43%
Cc1cc2c(cc1C)NC1=C(O)C(c3cccc(O)c3)OC1=N2 (configuration not stated); 4.58%
CC1(CN2CCCC2)CCC(NC(=O)C(c2ccccc2)c2ccccc2)C(C)(C)O1 (configuration not stated); 6.65%

Which Inhibition value belongs to CCCSc1nc2c(c(=O)n(C)c(=O)n2C)n1C ?
-8.65%

Which Inhibition value belongs to CC1=C(C#N)C(C)(C)C(C#N)=C(C)N1 ?
-13.23%

Which Inhibition value belongs to C1CCCC(NC2=NCCO2)CCC1 ?
-11.54%

Which Inhibition value belongs to Cc1n[nH]c2nc(N)nn2c1=O ?
-0.91%

Which Inhibition value belongs to COc1cc2c(c(OC)c1O)C(=O)CO2 ?
-8.29%

Which Inhibition value belongs to CN(CC(=O)O)Cc1oc(CO)cc(=O)c1O ?
-10.6%

Which Inhibition value belongs to CSc1cccc(NC(=O)OC2CCCCCCCCCCC2)c1 ?
6.29%

Which Inhibition value belongs to Cc1ccc(C(=N)Nc2ccccc2)cc1 ?
15.63%

Which Inhibition value belongs to CC1(C)N=C(N)N=C(N)N1c1cccc(CN)c1.CCS(=O)(=O)O ?
-6.92%

Which Inhibition value belongs to Oc1ccccc1Nc1ccccn1 ?
-5.24%

Which Inhibition value belongs to O=C(O)CCC(=O)c1ccc2ccc3cccc4ccc1c2c34 ?
9.69%

Which Inhibition value belongs to O=C1/C(=N\c2cccc(Cl)c2)CC(c2ccc(Cl)cc2)N1c1cccc(Cl)c1 (configuration not stated) ?
-11.7%

Which Inhibition value belongs to Nc1nc(=S)ss1 ?
-17.7%

Which Inhibition value belongs to CCOC(=O)Cc1cnc(S)nc1O ?
-11.54%

Provenance of the data: ChEMBL document CHEMBL4296182
